Measured EC50, listed per entry.
Biological target: Alkanal monooxygenase alpha chain (Vibrio harveyi, UniProt P07740)
Sequence (P07740 whole entry): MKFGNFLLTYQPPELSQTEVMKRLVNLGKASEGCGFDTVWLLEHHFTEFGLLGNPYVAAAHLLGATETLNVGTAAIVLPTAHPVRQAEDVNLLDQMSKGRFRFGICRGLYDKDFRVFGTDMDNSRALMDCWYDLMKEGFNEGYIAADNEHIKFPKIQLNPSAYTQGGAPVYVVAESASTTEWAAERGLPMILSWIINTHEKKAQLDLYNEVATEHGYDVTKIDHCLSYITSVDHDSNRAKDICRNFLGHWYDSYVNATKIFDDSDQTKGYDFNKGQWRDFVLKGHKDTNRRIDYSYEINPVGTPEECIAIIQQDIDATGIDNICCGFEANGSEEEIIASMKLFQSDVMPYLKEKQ
Experiment: inhibition of V. harveyi AI-2 signalling – luminescence, dose retest, Vibrio harveyi, confirmation (AID 2735)
Numbers only; they are read as µM.

CCc1ccc(S(=O)(=O)Nc2ccc(Br)cn2)cc1 [MLS001211346] :: 18.1
COc1cc(NC(=O)CN2C(=O)NC(c3ccccc3)(c3ccccc3)C2=O)cc(OC)c1 [MLS001176525] :: 10
CCCc1ccc(S(=O)(=O)N(C)S(=O)(=O)c2ccc(F)cc2)cc1 :: 8.81
Cc1cccc(NS(=O)(=O)c2ccc(Oc3ccccc3)cc2)n1 [SMR000071466] :: 12.5

## Input Quickly give me recorded EC50 for `C=Cn1c(C(=O)O)ccc1-c1ccc(CC)cc1`
## Output 25.8

## Input Quickly give me recorded EC50 for Cn1cnc(S(=O)(=O)Nc2ccc(OC(F)(F)F)cc2)c1 [SMR000314513]
## Output 24.5

All values here come from BindingDB's records for doi:10.7270/Q2PG1Q5Z.
